- system: IL-17A/F (Homo sapiens, UniProt Q16552+Q96PD4)
- Sequence (Q16552 24-155): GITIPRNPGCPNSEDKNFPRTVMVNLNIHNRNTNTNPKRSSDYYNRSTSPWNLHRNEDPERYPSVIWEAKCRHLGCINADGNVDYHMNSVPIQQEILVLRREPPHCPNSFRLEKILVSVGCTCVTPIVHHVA
- Sequence (Q96PD4 31-163): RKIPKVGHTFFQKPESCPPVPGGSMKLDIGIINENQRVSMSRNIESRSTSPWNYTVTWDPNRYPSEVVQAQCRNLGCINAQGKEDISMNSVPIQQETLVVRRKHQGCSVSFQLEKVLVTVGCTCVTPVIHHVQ
- assay_remarks: IL-17A/F HEK-Blue Cell Assay
- Assay type: cell-based
- condition_label: HEK-Blue IL-17 reporter cells, IL-17A/F stimulation, 20 hours, SEAP readout
property_label: IL17AF HEK Blue pIC50

Please review the following examples before continuing.
CCC(OC)C(=O)N[C@@H](C(=O)N1CCN(C)[C@H](C)C1)[C@@H](C)c1ccc(NC(=O)[C@@H](NC(=O)C2(F)CC2)C(C2CC2)C2CC2)c(F)c1 (single isomer, unassigned) [Compound 337]
C (7>C≥5)
CCOC(C)C(=O)N[C@@H](C(=O)N1CCN(C)[C@H](C)C1)[C@@H](C)c1ccc(NC(=O)[C@@H](NC(=O)C2(F)CC2)C(C2CC2)C2CC2)c(F)c1 (single isomer, unassigned) [Compound 322]
C (7>C≥5)
CCn1nccc1C(=O)N[C@H](C(=O)Nc1ccc([C@H](C)[C@@H](NC(=O)C(C)OCCOC)C(=O)N2CCN(C)CC2)cc1F)C(C1CC1)C1CC1 (single isomer, unassigned) [Compound 315]
C (7>C≥5)
CCC(=O)NC(C(=O)N1CCN(C)CC1)C(c1ccc(NC(=O)[C@@H](NC(=O)c2ccnn2CC)C(C2CC2)C2CC2)c(F)c1)C(F)(F)F (single isomer, unassigned) [Compound 352]
C (7>C≥5)

For the next question, use this compound.
-- ask Name the recorded IL17AF HEK Blue pIC50 for CCC(=O)NC(C(=O)N1CCN(C)CC1)C(c1ccc(NC(=O)[C@@H](NC(=O)c2ccnn2CC)C(C2CC2)C2CC2)c(F)c1)C(F)(F)F (single isomer, unassigned) [Compound 356] .
-- reply C (7>C≥5)

Values were extracted from patent US20250177383A1.
